Molecular target: T1, human serum albumin (human, UniProt P02768 25-609)
T1 construct: mature; Bought protein; biotinylated in the Octet and HTRF assays; also called HSA; HuSA
Assay: BLI (Octet), biotinylated albumin on SA sensor, pH 7.4
Readout Label: Kd (nM)

Binder	Endpoint Unit	Recorded Result
HSA-41 (designed binder, also called HSA-41 parent; HSA-41 AH parent) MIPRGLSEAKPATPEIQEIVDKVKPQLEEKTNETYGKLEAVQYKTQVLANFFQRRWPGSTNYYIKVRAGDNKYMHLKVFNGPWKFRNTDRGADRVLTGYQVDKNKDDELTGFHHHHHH	nM	5.2
HSA-31 (designed binder) MIPRGLSEAKPATPEIQEIVDKVKPQLEEKTNETYGKLEAVQYKTQVLAVWGPEYQHQSTNYYIKVRAGDNKYMHLKVFNGPNAGWPLVPEADRVLTGYQVDKNKDDELTGFHHHHHH	nM	15.3
HSA-37 (designed binder) MIPRGLSEAKPATPEIQEIVDKVKPQLEEKTNETYGKLEAVQYKTQVLAGFWASKWPGSTNYYIKVRAGDNKYMHLKVFNGPFTAVSKKDAADRVLTGYQVDKNKDDELTGFHHHHHH	nM	113
HSA-36 (designed binder) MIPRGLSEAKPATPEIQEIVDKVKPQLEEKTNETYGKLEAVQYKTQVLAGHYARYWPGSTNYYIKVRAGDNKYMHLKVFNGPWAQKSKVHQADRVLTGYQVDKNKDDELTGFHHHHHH	nM	136
HSA-20 (designed binder) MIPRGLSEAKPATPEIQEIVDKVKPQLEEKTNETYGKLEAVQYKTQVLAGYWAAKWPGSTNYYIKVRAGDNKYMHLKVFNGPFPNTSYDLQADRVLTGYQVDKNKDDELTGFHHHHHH	nM	40.5

I = HSA-18 (designed binder, also called HSA-18 monomer) MIPRGLSEAKPATPEIQEIVDKVKPQLEEKTNETYGKLEAVQYKTQVLADWWQAKWPHSTNYYIKVRAGDNKYMHLKVFNGPYKVHQSSGGADRVLTGYQVDKNKDDELTGFHHHHHH
II = HSA-22 (designed binder) MIPRGLSEAKPATPEIQEIVDKVKPQLEEKTNETYGKLEAVQYKTQVLANWYQQRWPGSTNYYIKVRAGDNKYMHLKVFNGPWHNYGESSGADRVLTGYQVDKNKDDELTGFHHHHHH
## Input Returns the identifier with the smallest measured Kd among I and II . Give the chosen item's label as your response.
## Output I
(I: 36.1 nM, II: 152 nM)
